# method_summary: Inhibition of bovine brain tubulin assembly by turbidimetry based spectrophotometric method
# Set-up: species or system Bos taurus
Readings of IC50 for the listed molecules
reported_endpoint: IC50

- sample_smiles: "COc1cc(-c2c3c(cn2S(=O)(=O)c2ccccc2)-c2nc(N)sc2CC3)cc(OC)c1OC"
  reported_measurement: "> 20 µM"
- sample_smiles: "O=C(Nc1nc2c(s1)CCc1c-2c(Br)n(Cc2ccccc2)c1Br)c1ccccc1"
  reported_measurement: "> 20 µM"
- sample_smiles: "COc1ccc(Cn2c(Br)c3c(c2Br)-c2nc(N)sc2CC3)cc1"
  reported_measurement: "7.8 µM"
- sample_smiles: "COc1ccc(Cn2c(Br)c3c(c2-c2cc(OC)c(OC)c(OC)c2)CCc2sc(NC(C)=O)nc2-3)cc1"
  reported_measurement: "12 µM"
- sample_smiles: "Nc1nc2c(s1)CCc1c-2c(Br)n(Cc2ccccc2)c1Br"
  reported_measurement: "> 20 µM"
- sample_smiles: "COc1ccc(Cn2c(Br)c3c(c2-c2cc(OC)c(OC)c(OC)c2)CCc2sc(N)nc2-3)cc1"
  reported_measurement: "> 20 µM"
